Tested on: Plasmodium falciparum
assayMethodText: GSK_TCMDC: Inhibition of Plasmodium falciparum Dd2 in whole red blood cells, using parasite LDH activity as an index of growth. Test compounds present at 2uM
Type: functional
Readings of Inhibition for the listed compounds
Return type: number; implicit unit %.

CNc1cc(-c2ccc3ccnc(N)c3c2)nc(N)n1.O=CO | 81

What reported Inhibition corresponds to CCCC(C(=O)OCCNC)(c1ccccc1)c1ccccc1.Cl on Plasmodium falciparum?
96

Form field - read-out: Inhibition; system: Plasmodium falciparum; submitted item: CCc1c[nH]c2c(N3CCCS3(=O)=O)cc(C(=O)N[C@@H](Cc3ccccc3)[C@H](O)CNC(C)(C)c3cccc(C(F)(F)F)c3)cc12.O=CO
99

Lab request: please report Inhibition under test system Plasmodium falciparum for Cc1cc(C(=O)CN2C(=O)NC(C)(c3cccc4ccccc34)C2=O)c(C)n1Cc1ccco1 (stereo not given)
23

Item O=C(/C=C/c1ccc(Cl)c(Cl)c1)NCC1CCN(Cc2ccc(O)cc2)CC1.O=C(O)C(F)(F)F with Plasmodium falciparum - Inhibition?
0

====

Tested on: HepG2
assayMethodText: GSK_TCMDC: Percent inhibition of human HepG2 cell line. Test compounds present at 10uM.
Format: functional
This listing pairs compounds with measured Inhibition.
Please reply with the bare figure in % and do not write the unit itself.

OCCN1CCN(C(=S)NC2CCCCC2)CC1 | 49

Quick check: Inhibition of Cl.N[C@@H](CCNC1CCN(c2cccc(C(F)(F)F)c2)CC1)Cc1ccc(F)c(F)c1 ?
100

So what does the record say about Inhibition for CCOC(=O)c1c(-c2ccccc2)nc2c(sc3ccccc32)c1O ?
2

For the compound shown here, Cc1ccnc(NC(c2cccc(OCc3ccccc3)c2)c2ccc3cccnc3c2O)c1 (stereo not given) , give the reported Inhibition.
26

Any idea what Inhibition was measured for COCc1nc(-c2ccccc2)nc(N2CCN(C(=O)NC(C)C)CC2)c1Cc1ccccc1F ?
35

====

Recorded Inhibition values for a group of compounds are listed next.
Test system: Plasmodium falciparum
assayMethodText: GSK_TCMDC: Inhibition of Plasmodium falciparum 3D7 in whole red blood cells, using parasite LDH activity as an index of growth. Test compounds present at 2uM
Assay type: functional
Quick reminder: number only, in %, skip the unit.

CCCCCC(=O)NCC(NCCCNc1cc(=O)c2ccccc2[nH]1)c1cc(Br)cc(Br)c1 (centres undefined) | 96
CCc1c[nH]c2c(N3CCCC3=O)cc(C(=O)N[C@@H](Cc3ccccc3)[C@H](O)CNC(C)(C)CCCC(C)C)cc12.O=CO | 96
O=C(N[C@@H](CC1CCCCC1)C(=O)NC1CCCCC1)c1ccc(O)c(-c2cccc(C(F)(F)F)c2)c1 | 100
CN(C)c1ccc2c(c1)Sc1cc(N(C)C)ccc1N2C(=O)CCCC(=O)[O-].[Na+] | 96
CCOc1ccc2[nH]c(C)cc(=NN=Cc3ccccc3Cl)c2c1 | 100
Cc1cccc2[nH]c(-c3cc(-c4cccc(Cl)c4)cnc3N)nc12.O=C(O)C(F)(F)F | 100
COc1ccc(NC(=O)/C=C/c2ccccc2Cl)cc1OCCN1CCC(N2CCCC2)CC1.O=C(O)C(=O)O | 100
COc1ccc2c(=NN=Cc3ccccc3)cc(C)[nH]c2c1 | 100

Note: attention shifts to another entry.
Data request, read-out Inhibition, for O=C(Cn1c(SCc2cccc(F)c2F)cc(=O)c2ccccc21)N(CCn1ccnc1)Cc1ccc(-c2ccc(C(F)(F)F)cc2)cc1
100

====

Test system: Plasmodium falciparum
assayMethodText: GSK_TCMDC: Inhibition of Plasmodium falciparum 3D7 in whole red blood cells, using parasite LDH activity as an index of growth. Test compounds present at 2uM
Type: functional
Each entry below carries its reported Inhibition.
# include the unit after the value

Some solved cases for reference:
COc1cc2ncnc(NCCc3ccccc3Cl)c2cc1OC | 88%
COc1ccc2nccc([C@@H](O)CN3CCC(NCc4nc5cc(F)ccc5o4)CC3)c2c1.O=C(O)C(=O)O | 100%
CN(Cc1cc(C(F)(F)F)cc(C(F)(F)F)c1)C(=O)C1CNCC1c1ccc(F)cc1.Cl (centres undefined) | 92%
CN1CCCN(Cc2cccc(-c3ccc(NC(=O)c4cccc(C#N)c4)cc3)c2)CC1.O=C(O)C(F)(F)F | 100%
Cc1ccc(-c2cc3nc4c(c(NCCCn5ccnc5)n3n2)CCC4)cc1 | 94%

API: value(readout=Inhibition, system=Plasmodium falciparum) for record Cc1c(CN2CCCCC2)cccc1OCCCNc1nc(NCCc2ccc(O)cc2)nc(N2CCNCC2)n1.O=C(O)C(F)(F)F
100%

Recall the recorded Inhibition for COCCNCc1cccc(-c2ccc3nccc(Nc4cc(O)ccc4C)c3c2)c1 with Plasmodium falciparum and state it.
100%

Form field: Inhibition recorded for COc1ccc2cc(CNCCCCCCNCc3ccc4cc(OC)ccc4c3)ccc2c1.CS(=O)(=O)O with Plasmodium falciparum (enter value)
100%

Any idea what Inhibition came out for Cn1cncc1-c1cc2c(Nc3ccc(OCc4ccccc4)cc3)ncnc2cn1 on Plasmodium falciparum?
99%

Find Inhibition (Plasmodium falciparum) for the entry N#Cc1ccc(N2CCN(Cc3cccc(-c4ccc(-c5nc6cc(C(F)(F)F)ccc6[nH]5)s4)c3)CC2)nc1.O=C(O)C(F)(F)F
96%

Look up Inhibition with Plasmodium falciparum for this compound: CCCn1cnc2cc(C(=O)Nc3ccc(-c4cccc(CN(C)C)c4)cc3)ccc2c1=O
95%

Which Inhibition is reported with Plasmodium falciparum for this entry: CCC(C)(C)c1ccc(OCC(O)CN2CCCCC2)c(C(C)(C)CC)c1 (centres undefined) ?
91%

I'm curious: which Inhibition was measured for Cc1ccc(NC(=O)c2c(C)noc2-c2snnc2C)cc1 tested on Plasmodium falciparum?
92%

====

Recorded Inhibition by entry
Tested on: HepG2
assayMethodText: GSK_TCMDC: Percent inhibition of human HepG2 cell line. Test compounds present at 10uM.
Assay type: functional
Write it as a number; the unit % goes unstated.

These solved cases illustrate the format of a correct answer.
CN(C)CCN1CCN(CCCN2c3ccccc3Sc3ccc(C(F)(F)F)cc32)CC1.Cl | 98
O=C(Nc1ccsc1)Nc1cccc(-c2cccc(-c3nc4ccccc4[nH]3)c2)c1 | 61

Lab request: please report Inhibition under test system HepG2 for CCc1ccc(-c2cnc(N)c3cc(-c4ccnc(N)n4)ccc23)cc1
37

Form field - read-out: Inhibition; system: HepG2; submitted item: COc1ccc(Cl)cc1-c1nc(C(=O)NCCN2CCCCC2)c(C)s1.O=C(O)C(F)(F)F
16

Under HepG2: Inhibition value of C=C(NC(=O)C1CCCCC1)C(=O)OC ?
15

Requested read-out Inhibition, target or system HepG2, entry CCN(CC)CCN(Cc1ccc(-c2ccc(C(F)(F)F)cc2)cc1)C(=O)c1c[nH]c2ccc(Br)cc12
80

Lab request: please report Inhibition under test system HepG2 for Cc1ccc(C)c(Sc2ccc(NC(=O)CN3CCN(C(=O)c4ccco4)CC3)cc2)c1
28

Form field - read-out: Inhibition; system: HepG2; submitted item: COc1ccc(-c2nnc(Sc3ccc(C#N)c([N+](=O)[O-])c3)n2CCC(C)C)cc1
15

Recorded Inhibition for CC(NCCc1cccc(Cl)c1)C(O)c1ccc(OCCCCCCOc2ccc(C(O)C(C)NCCc3cccc(Cl)c3)cc2)cc1 (centres undefined) with HepG2, please?
96

Request body: readout Inhibition, system HepG2, query N#CCCN1CCN(Cc2cccc(-c3ccc(-c4nc5ccccc5[nH]4)cc3)c2)CC1.O=C(O)C(F)(F)F . Return the value.
18

So what Inhibition did CS(=O)(=O)O.O=[N+]([O-])c1ccc(CNCCCCCCNCc2ccc([N+](=O)[O-])c3ccccc23)c2ccccc12 get with HepG2?
88

Return Inhibition measured with HepG2 given this compound: COc1ccc(CC(=O)NC(CCN2CCC3(CCc4ccccc43)CC2)c2ccc(Cl)c(Cl)c2)cc1 (centres undefined)
28

Report Inhibition for CCN(CC)CCCC(C)Nc1cc(C)nc2cc(Cl)ccc12 (centres undefined) tested on HepG2.
9

Write down the reported Inhibition of COc1ccc(-c2ccc(NC(=O)c3ccc(F)cc3)cc2)cc1CN1CCCN(C)CC1.O=C(O)C(F)(F)F , test system: HepG2.
29

Which Inhibition is reported with HepG2 for this entry: COc1cc2c(c(Cl)c1OC)CCN(C(=O)C(F)(F)F)CC2c1ccccc1 (centres undefined) ?
7

====

# reported Inhibition; entries follow
Tested on: HepG2
assayMethodText: GSK_TCMDC: Percent inhibition of human HepG2 cell line. Test compounds present at 10uM.
Assay type: functional
Numeric answer only, unit % assumed.

Some molecules with recorded Inhibition:
Cc1[nH]c(CNCCCNc2cc(=O)c3ccccc3[nH]2)c(Br)c1Br | 0
CCn1c(-c2nonc2N)nc2cnc(Oc3cccc(NC(=O)c4ccc(OCCCN5CCCCC5)cc4)c3)cc21 | 38
CCCC(CCC)n1ccc2c3c(N)nc(N)nc3ccc21.Cl | 66

Okay, now this molecule:
Which Inhibition value is on record for Cc1cccc(-c2nn(-c3ccccc3)c3[nH]c(=O)c(CNC4CCCC4)cc23)c1 ?
18
